So I've got a bunch of compounds here, and I need their Nitrified NH4+—N (%) Day 28 values.
System: Dahlen soil
Assay: Soil microcosm incubation (nitrification of applied ammonium), Dahlen soil
Settings: Table 4, Dahlen soil pH 7.3, 35° C., day 28; 10 mol %
Procedure: The soil used in this study was collected from four different locations in Victoria, Australia: (i) a wheat cropping soil from Horsham (36° 45′S, 142° 07′ E), (ii) a rotational cropping soil from Dahlen (36° 37′S, 142° 09′ E), (iii) a vegetable growing soil from Clyde (38° 08′S, 145° 20′ E), and (iv) a pasture soil from Terang (38° 15′S, 142° 52′E). […] The water content of the soil was calculated before commencing each experiment, from samples that were oven-dried to constant weight. […]
Please respond with the number in % and leave the unit unwritten.

Query: Which Nitrified NH4+—N (%) Day 28 is listed for C#CCCn1cc(CCC)nn1 [Compound 17] ?
Result: 37.6

Query: What would you report for CCCCn1cc(CCC)nn1 [Compound 13, 1-butyl-4-propyl-1H-1,2,3-triazole] ?
Result: 33.6

Query: What would you report for CCCc1cn(CCC)nn1 [Compound 16, 1,4-dipropyl-1H-1,2,3-triazole] ?
Result: 16.9

Query: What would you report for CCCCc1cn(CCCC)nn1 [Compound 2, 1,4-butyl-1H-1,2,3-triazole] ?
Result: 22.4

Query: What would you report for Cc1c[nH]nc1C.O=P(O)(O)O [DMPP, 3,4-dimethylpyrazole phosphate, reference compound] ?
Result: 60.5

---

So I've got a bunch of molecules here, and I need their Nitrified NH4+—N (%) Day 3 values.
tested on: Dahlen soil; assay: Soil microcosm incubation (nitrification of applied ammonium), Dahlen soil; conditions: Table 5, Dahlen soil pH 7.3, 35° C., day 3; 10 mol %
Please respond with the number in % and leave the unit unwritten.

Query: Requested read-out Nitrified NH4+—N (%) Day 3, target or system Dahlen soil, entry C=CCOC(=O)Cn1cc(CCC)nn1
Result: 16.6

Query: What would you report for C=CCn1cc(CCC)nn1 ?
Result: 9.0

Query: What would you report for Cc1c[nH]nc1C.O=P(O)(O)O [DMPP, 3,4-dimethylpyrazole phosphate, reference compound] ?
Result: 15.3

Query: What would you report for C#CCNC(=O)Cn1cc(CCC)nn1 ?
Result: 15.6

---

tested on: Horsham soil; test: Soil microcosm incubation (nitrification of applied ammonium), Horsham soil; settings: Horsham soil pH 8.8, 35° C., day 28; 10 mol %
assay_endpoint: Nitrified NH4+—N (%) Day 28
Please respond with the number in % and leave the unit unwritten.

Query: Which Nitrified NH4+—N (%) Day 28 is listed for C#CCCn1cc(CCC)nn1 ?
Result: 76.2

Query: What would you report for Cc1c[nH]nc1C.O=P(O)(O)O [DMPP, 3,4-dimethylpyrazole phosphate, reference compound] ?
Result: 64.5

Query: What would you report for CCCCc1cn(CCOC)nn1 ?
Result: 79.7

Query: What would you report for CCCCn1cc(CCC)nn1 ?
Result: 61.2

Query: What would you report for CCCCc1cn(CCCC)nn1 ?
Result: 71.6

Query: What would you report for CCCc1cn(CCC)nn1 ?
Result: 83.7

---

So I've got a bunch of compounds here, and I need their Nitrified NH4+—N (%) Day 28 values.
tested on: South Johnstone soil; assay: Soil microcosm incubation (nitrification of applied ammonium), South Johnstone soil; details: South Johnstone soil pH 5.0, 25° C., day 28; 10 mol %
Please respond with the number in % and leave the unit unwritten.

Query: Requested read-out Nitrified NH4+—N (%) Day 28, target or system South Johnstone soil, entry C=CCn1cc(CCC)nn1
Result: −14.9

Query: What would you report for Cc1c[nH]nc1C.O=P(O)(O)O [DMPP, 3,4-dimethylpyrazole phosphate, reference compound] ?
Result: −7.5

Query: What would you report for CCCc1cn(CCC)nn1 ?
Result: −13.2

Query: What would you report for CCCCc1cn(CC(=O)OCC)nn1 ?
Result: −12.8

---

test system: Dahlen soil; assay: Soil microcosm incubation (nitrification of applied ammonium), Dahlen soil; conditions: Table 5, Dahlen soil pH 7.3, 25° C., day 7; 10 mol %
assay_endpoint: Nitrified NH4+—N (%) Day 7
Please respond with the number in % and leave the unit unwritten.

Query: Requested read-out Nitrified NH4+—N (%) Day 7, target or system Dahlen soil, entry C#CCNC(=O)Cn1cc(CCC)nn1 [Compound 23]
Result: 15.7

Query: What would you report for Cc1c[nH]nc1C.O=P(O)(O)O [DMPP, 3,4-dimethylpyrazole phosphate, reference compound] ?
Result: 11.0

Query: What would you report for C=CCOC(=O)Cn1cc(CCC)nn1 [Compound 20] ?
Result: 8.0

Query: What would you report for C=CCn1cc(CCC)nn1 [Compound 18] ?
Result: 4.4

---

System: South Johnstone soil
Experiment: Soil microcosm incubation (nitrification of applied ammonium), South Johnstone soil
Conditions: South Johnstone soil pH 5.0, 25° C., day 7; 10 mol %
Method: The soil used in this study was collected from four different locations in Victoria, Australia: (i) a wheat cropping soil from Horsham (36° 45′S, 142° 07′ E), (ii) a rotational cropping soil from Dahlen (36° 37′S, 142° 09′ E), (iii) a vegetable growing soil from Clyde (38° 08′S, 145° 20′ E), and (iv) a pasture soil from Terang (38° 15′S, 142° 52′E). […] The water content of the soil was calculated before commencing each experiment, from samples that were oven-dried to constant weight. […]
assay_endpoint: Nitrified NH4+—N (%) Day 7

Query: Requested read-out Nitrified NH4+—N (%) Day 7, target or system South Johnstone soil, entry Cc1c[nH]nc1C.O=P(O)(O)O [DMPP, 3,4-dimethylpyrazole phosphate, reference compound]
Result: −10.3 ± 0.7%

Query: What would you report for CCCCc1cn(CC(=O)OCC)nn1 [Compound 3] ?
Result: −7.9 ± 0.9%

Query: What would you report for CCCc1cn(CCC)nn1 [Compound 16, 1,4-dipropyl-1H-1,2,3-triazole] ?
Result: −11.5 ± 0.8%

Query: What would you report for C=CCn1cc(CCC)nn1 [Compound 18] ?
Result: −8.5 ± 1.0%

---

test system: Terang soil; experiment: Soil microcosm incubation (nitrification of applied ammonium), Terang soil; conditions: Terang soil pH 6.5, 25° C., day 14; compounds 10 mol %, L-DMPP 1.5 mol %
// returns 0.0 unless Nitrified NH4+—N (%) Day 14 is strictly below 90%, in which case 1.0

Query: Confirm or reject: Nitrified NH4+—N (%) Day 14 of CCCCc1cn(CC(=O)OCC)nn1 lies strictly below 90%
Result: 1.0

Query: What would you report for CCCCCc1cn(CCCC)nn1 ?
Result: 1.0

Query: What would you report for CCCCc1cn(CCCC)nn1 ?
Result: 0.0

Query: What would you report for CCCCn1cc(C(C)(C)O)nn1 ?
Result: 0.0

---

Tested on: Dahlen soil
Test: Soil microcosm incubation (nitrification of applied ammonium), Dahlen soil
Details: Table 5, Dahlen soil pH 7.3, 35° C., day 14; 10 mol %
Procedure: The soil used in this study was collected from four different locations in Victoria, Australia: (i) a wheat cropping soil from Horsham (36° 45′S, 142° 07′ E), (ii) a rotational cropping soil from Dahlen (36° 37′S, 142° 09′ E), (iii) a vegetable growing soil from Clyde (38° 08′S, 145° 20′ E), and (iv) a pasture soil from Terang (38° 15′S, 142° 52′E). […] The water content of the soil was calculated before commencing each experiment, from samples that were oven-dried to constant weight. […]
assay_endpoint: Nitrified NH4+—N (%) Day 14
Please respond with the number in % and leave the unit unwritten.

Query: Requested read-out Nitrified NH4+—N (%) Day 14, target or system Dahlen soil, entry C#CCNC(=O)Cn1cc(CCC)nn1 [Compound 23]
Result: 24.0

Query: What would you report for Cc1c[nH]nc1C.O=P(O)(O)O [DMPP, 3,4-dimethylpyrazole phosphate, reference compound] ?
Result: 16.0

Query: What would you report for C=CCOC(=O)Cn1cc(CCC)nn1 [Compound 20] ?
Result: 17.7

Query: What would you report for C=CCn1cc(CCC)nn1 [Compound 18] ?
Result: 26.7

---

tested on: Dahlen soil; assay: Soil microcosm incubation (nitrification of applied ammonium), Dahlen soil; conditions: Table 4, Dahlen soil pH 7.3, 25° C., day 7; 10 mol %
Tag: YES if measured Nitrified NH4+—N (%) Day 7 is not below 20%, NO if it is.

Query: Confirm if Nitrified NH4+—N (%) Day 7 reported for the compound CCCCn1cc(CCC)nn1 is 20% or above.
Result: YES

Query: What would you report for C#CCCn1cc(CCC)nn1 ?
Result: NO

Query: What would you report for CCCc1cn(CCC)nn1 ?
Result: NO

Query: What would you report for CCCCc1cn(CCCC)nn1 ?
Result: YES

Query: What would you report for Cc1c[nH]nc1C.O=P(O)(O)O [DMPP, 3,4-dimethylpyrazole phosphate, reference compound] ?
Result: NO
